Source: the supplement of paper PMC10567573

B1: TCEB3B (parent)
chain: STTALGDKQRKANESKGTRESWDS

Variants of: B1
Assay: protein stability index of a GFP-peptide fusion (GPS, HEK-293T) (PSI 1-6); higher = more stable;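 note: lentivirally expressed fusions sorted by FACS into six bins by GFP to DsRed ratio, PSI derived from sequencing read proportions per bin multiplied by bin number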
Details: c terminus: a fixed tail appended
readout-name: protein stability index
# respond with the number and nothing more

(Q) Fill blank: measured protein stability index of the variant STTALGDKQRKANESRGTRESWDS [K16R] is ____.
(A) 4.04

(Q) Fill blank: measured protein stability index of the variant STTALGDKQRKANESTGTRESWDS [K16T] is ____.
(A) 4.24

(Q) Fill blank: measured protein stability index of the variant STTALGDKQRKANESKGTIESWDS [R19I] is ____.
(A) 4.58
